- EXPERIMENTAL_SYSTEM: Cytochrome P450 2C9 (Homo sapiens)
- EXPERIMENTAL_PROTOCOL: Cytochrome panel assay with activity outcomes
- TEST_SETTINGS: recombinant CYP, pro-luciferin dealkylation, luminescence, p450-cyp2c9; series mostly up to 57.1 µM
- Procedure: The P450 gene superfamily is involved in the metabolism and clearance of xenobiotics. This assay used various human CYP P450 isozymes to measure the dealkylation of various pro-luciferin substrates to luciferin. The luciferin is then measured by luminescence after the addition of a luciferase detection reagent. […] Inhibitors and some substrates limit the production of luciferin, and decrease measured luminescence. […] 8, Detection, 1 sec, ViewLux luminescent read […]
In all, about 16,000 compounds went through this assay and about 4,000 (25%) were called active. Roughly 26% stayed inconclusive and do not appear here. Calls follow the shape of the dose curve; as a rule, active = well fitted curve in the direction sought with a large enough effect; inconclusive = small, poorly fitted or top-dose-only effect, or effect the other way; inactive = no such curve, though single readings can be large or run the other way. These entries were drawn from the full list.
API: response.call in active, inactive

> print(dat)
                                   compound     class
1  Cn1c(=O)c(-c2ccc(F)cc2)nc2cnc(N3CCOCC3)nc21  inactive

How did this test come out for `CN1CCc2cc3c(cc2[C@@H]1[C@@H]1C(=O)Oc2c1ccc1c2OCO1)OCO3` ?
active

How did this test come out for `CCOC(=O)Cc1c(C)nc2c(C#N)c[nH]n2c1=O` ?
active

How did this test come out for `Cc1ccc(NC(=O)CN(C)C(=O)CSc2n[nH]c(N)n2)cc1` ?
inactive

How did this test come out for `CCc1ccc(OCC(=O)NNC(=O)CSc2ncnc3sc(C)c(C)c23)cc1` ?
inactive

How did this test come out for `Cc1c(C2CCN(CCc3ccccc3)CC2)noc1-c1ccc(Cl)cc1` ?
inactive

How did this test come out for O=C1CC(c2ccccc2)Cc2nc(N3CCc4ccccc4C3)ncc21 (stereo unspecified) ?
active

How did this test come out for `CCc1c2c(nc3cccc(SC)c13)COC2` ?
inactive

How did this test come out for CC1CC(=O)c2cnc(N)nc2C1 (stereo unspecified) ?
inactive

====

- EXPERIMENTAL_SYSTEM: Cytochrome P450 2C9 (Homo sapiens)
- EXPERIMENTAL_PROTOCOL: Cytochrome panel assay with activity outcomes
- TEST_SETTINGS: recombinant CYP, pro-luciferin dealkylation, luminescence, p450-cyp2c9; series mostly up to 57.1 µM
Among all 16,000 compounds or so, about 4,000 (25%) were called active. About 26% were inconclusive and are not listed. Calls follow the shape of the dose curve; as a rule, active = well fitted curve in the direction sought with a large enough effect; inconclusive = small, poorly fitted or top-dose-only effect, or effect the other way; inactive = no such curve, though single readings can be large or run the other way. These entries were drawn from the full list.
API: response.call in active, inactive

> print(dat)
                        molecule.smiles     class
1           CCc1c2c(nc3ccc(OC)cc13)COC2  inactive
2  C[C@@](N)(C(=O)O)c1ccc(P(=O)(O)O)cc1  inactive
3     CNc1cc(N2CCCCCC2)ccc1[N+](=O)[O-]    active

How did this test come out for `CC(=O)Nc1ccc(N2CCCCC2)cc1` ?
inactive

====

- EXPERIMENTAL_SYSTEM: Cytochrome P450 2C9 (Homo sapiens) (UniProt P11712)
- Sequence (P11712 whole entry, looked up): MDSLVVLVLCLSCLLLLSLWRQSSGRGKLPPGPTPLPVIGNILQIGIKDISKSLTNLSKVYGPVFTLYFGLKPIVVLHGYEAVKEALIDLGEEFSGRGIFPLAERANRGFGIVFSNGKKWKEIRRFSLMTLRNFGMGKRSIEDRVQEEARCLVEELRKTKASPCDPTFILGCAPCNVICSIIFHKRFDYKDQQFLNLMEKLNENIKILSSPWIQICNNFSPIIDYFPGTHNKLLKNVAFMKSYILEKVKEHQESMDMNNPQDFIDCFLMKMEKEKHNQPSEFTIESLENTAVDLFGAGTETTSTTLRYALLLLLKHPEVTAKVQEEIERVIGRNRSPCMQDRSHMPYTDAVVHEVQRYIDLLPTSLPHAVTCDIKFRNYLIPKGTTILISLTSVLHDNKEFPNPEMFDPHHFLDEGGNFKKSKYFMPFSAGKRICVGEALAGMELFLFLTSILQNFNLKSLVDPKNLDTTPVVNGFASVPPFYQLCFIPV
- EXPERIMENTAL_PROTOCOL: Cytochrome panel assay with activity outcomes
- TEST_SETTINGS: recombinant CYP, pro-luciferin dealkylation, luminescence, p450-cyp2c9; series mostly up to 57.1 µM
The whole screen tested about 16,000 compounds, of which about 4,000 (25%) were called active. Inconclusive results (about 26%) are left out. Calls come from the whole dose curve; as a rule, active = well fitted curve in the direction sought with a large enough effect; inconclusive = small, poorly fitted or top-dose-only effect, or effect the other way; inactive = no such curve, though single readings can be large or run the other way. These entries were drawn from the full list.
API: response.call in active, inactive

How did this test come out for `COc1ccc(NC(=O)CSc2nc3ccccc3c(=O)n2CCC(=O)N2CCCCC2)cc1` ?
active

How did this test come out for `CN1CCN(C(=O)c2ccc3c(=O)n4c(nc3c2)CCCCC4)CC1` ?
inactive

How did this test come out for `COc1ccc(-n2c(=O)c(-c3ccc(F)cc3)nc3cnc(OC)nc32)cc1` ?
inactive

How did this test come out for Cc1ccc(C2C(C(=O)c3sc(C)nc3C)=C(O)C(=O)N2CCN2CCOCC2)o1 (centres undefined) ?
inactive

====

- EXPERIMENTAL_SYSTEM: Cytochrome P450 2C9 (Homo sapiens)
- EXPERIMENTAL_PROTOCOL: Cytochrome panel assay with activity outcomes; as to activity, negative = inhibition: % is scaled to controls: 0 for no effect and ±100 for the full control effect
- TEST_SETTINGS: recombinant CYP, pro-luciferin dealkylation, luminescence, p450-cyp2c9; series mostly up to 57.1 µM
Hit rate of the full screen: of about 16,000 compounds, about 4,000 (25%) were called active. Another 26% or so got no clear call; they are omitted. Only a sample is shown.
ASSAY_ENDPOINT: activity, negative = inhibition

The examples below pair each entry with its known result.
> print(dat)
                     molecule.smiles            recorded.measurement
1  CC1(C)OCC([C@H](O)C2=CCCCC2=O)CO1   2.86% [at 11.4 µM] (inactive)
2           c1ccc2c(CC3NCCN3)cccc2c1  -9.35% [at 11.4 µM] (inactive)
3       CC(C)(CC(=O)Nc1ccccc1)C(=O)O   4.33% [at 11.4 µM] (inactive)
4        O=S(=O)(O)CCCc1cccc2ccccc12  -3.26% [at 11.4 µM] (inactive)

Turning now to a further record.
Which measured activity, negative = inhibition value corresponds to `CC(C)(C)NC[C@@H](O)c1ccc(O)c(CO)n1` ?
6.16% [at 11.4 µM] (inactive)

====

- EXPERIMENTAL_SYSTEM: Cytochrome P450 2C9 (Homo sapiens) (UniProt P11712)
- EXPERIMENTAL_PROTOCOL: Cytochrome panel assay with activity outcomes
- TEST_SETTINGS: recombinant CYP, pro-luciferin dealkylation, luminescence, p450-cyp2c9; series mostly up to 57.1 µM
- Protocol: The P450 gene superfamily is involved in the metabolism and clearance of xenobiotics. This assay used various human CYP P450 isozymes to measure the dealkylation of various pro-luciferin substrates to luciferin. The luciferin is then measured by luminescence after the addition of a luciferase detection reagent. […] Inhibitors and some substrates limit the production of luciferin, and decrease measured luminescence. […] 8, Detection, 1 sec, ViewLux luminescent read […]
The whole screen tested about 16,000 compounds, of which about 4,000 (25%) were called active. Inconclusive results (about 26%) are left out. Calls come from the whole dose curve; as a rule, active = well fitted curve in the direction sought with a large enough effect; inconclusive = small, poorly fitted or top-dose-only effect, or effect the other way; inactive = no such curve, though single readings can be large or run the other way. These entries were drawn from the full list.
API: response.call in active, inactive

> print(dat)
                                   molecule     class
1  CCOc1ccc(/C(O)=C2/C(=O)C(=O)N(CCOCCO)C2c2cccnc2)cc1 (stereo unspecified)  inactive

How did this test come out for `O=C(Cc1cccc2ccccc12)N/N=C/c1ccc(Sc2nc3ccccc3s2)o1` ?
active

====

- EXPERIMENTAL_SYSTEM: Cytochrome P450 2C9 (Homo sapiens) (UniProt P11712)
- EXPERIMENTAL_PROTOCOL: Cytochrome panel assay with activity outcomes; as to activity, negative = inhibition: % is scaled to controls: 0 for no effect and ±100 for the full control effect
- TEST_SETTINGS: recombinant CYP, pro-luciferin dealkylation, luminescence, p450-cyp2c9; series mostly up to 57.1 µM
Screen size: about 16,000 compounds; about 4,000 (25%) were called active. Roughly 26% stayed inconclusive and do not appear here. The list is a sample of the results.
ASSAY_ENDPOINT: activity, negative = inhibition

The examples below pair each entry with its known result.
> print(dat)
                            molecule.smiles                   assay.endpoint            recorded.measurement
1  CC(=O)OC[C@H]1O[C@@H](O/N=C(\C)CCN2CCCCc3nc(C)c(C)cc32)[C@H](OC(C)=O)[C@@H](OC(C)=O)[C@H]1OC(C)=O  activity, negative = inhibition   23.5% [at 11.4 µM] (inactive)
2          c1ccc2sc(SCCSc3nc4ccccc4s3)nc2c1  activity, negative = inhibition   23.1% [at 11.4 µM] (inactive)
3  C/C(CCN1CCCCc2nc(C)c(C)cc21)=N\OC[C@@H](C)[C@H](OCc1ccccc1)C(C)C  activity, negative = inhibition  -7.17% [at 11.4 µM] (inactive)

Turning now to a further record.
Which measured activity, negative = inhibition value corresponds to `O=C(O)CCCSc1nc2ccccc2s1` ?
-7.61% [at 11.4 µM] (inactive)

====

- EXPERIMENTAL_SYSTEM: Cytochrome P450 2C9 (Homo sapiens)
- EXPERIMENTAL_PROTOCOL: Cytochrome panel assay with activity outcomes; as to activity, negative = inhibition: % is scaled to controls: 0 for no effect and ±100 for the full control effect
- TEST_SETTINGS: recombinant CYP, pro-luciferin dealkylation, luminescence, p450-cyp2c9; series mostly up to 57.1 µM
Among all 16,000 compounds or so, about 4,000 (25%) were called active. Inconclusive results (about 26%) are left out. The list is a sample of the results.
ASSAY_ENDPOINT: activity, negative = inhibition

The examples below pair each entry with its known result.
> print(dat)
                            molecule.smiles            recorded.measurement
1  COc1ccccc1CNc1ncncc1-c1ccc(C(=O)N(C)C)cc1  -24.3% [at 2.29 µM] (inactive)
2    CC(C)=NOCc1ccc(-c2cc(-c3ccccc3)no2)cc1     12% [at 11.4 µM] (inactive)
3  COc1cccc([C@H](O)Cn2cc(-c3cccc(CON=C(C)C)c3)nn2)c1   -2.7% [at 11.4 µM] (inactive)
4           CC(C)/C(=N/[N+](C)(C)C)c1ccccc1   9.65% [at 11.4 µM] (inactive)
5  CN(C)C(=O)c1ccc(-c2nc(NCc3cccnc3)c3ccccc3n2)cc1   8.86% [at 2.29 µM] (inactive)

Turning now to a further record.
Which measured activity, negative = inhibition value corresponds to `C(/C=C\c1ccccc1)=Nc1ccc2c(c1)Cc1ccccc1-2` ?
-24.1% [at 11.4 µM] (inactive)

Numbers sourced from PubChem BioAssay AID1851.
